Please provide measured pKi for the entries that follow.
TARGET_OR_SYSTEM: UniProt:P30874
Sequence (P30874 whole entry): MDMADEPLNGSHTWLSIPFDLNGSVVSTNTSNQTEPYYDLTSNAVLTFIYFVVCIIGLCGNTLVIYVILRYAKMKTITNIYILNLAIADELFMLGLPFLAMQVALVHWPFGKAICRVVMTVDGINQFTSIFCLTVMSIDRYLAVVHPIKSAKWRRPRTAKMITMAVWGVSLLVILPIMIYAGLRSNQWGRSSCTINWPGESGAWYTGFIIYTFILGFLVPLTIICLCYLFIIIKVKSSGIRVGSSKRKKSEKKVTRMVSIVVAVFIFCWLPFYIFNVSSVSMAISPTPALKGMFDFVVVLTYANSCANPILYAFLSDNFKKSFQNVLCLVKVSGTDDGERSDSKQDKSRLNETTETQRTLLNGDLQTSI
PROTOCOL_NOTES: SSTR binding affinity by radioligand binding competition assay ([125I]-Tyr11-Somatostatin, membrane extracts)
SETTINGS: radioligand competition, [125I]-Tyr11-Somatostatin 0.1 nM, membrane extracts; Ki from IC50 by Cheng Prusoff; read-out: SSTR2 Ki
pKi: −log10 of the molar value. Numbered stars: 1 amine (or outer) side, 2 acyl side, 3 side chain; on linkers, the order of the positions; unused ones are H or OH. Square brackets hold non-standard residues; d marks the D form. Peptide text beside a SMILES is read from it. * marks the point of attachment. ξ: configuration not given here. DOTA(Lu)NH(CH2)6NHCOCH2 = O=C(CN1CCN2CCN3CCN(CC1)CC(=O)[O][Lu]([O]C(=O)C2)[O]C(=O)C3)NCCCCCCNC(=O)C*; DOTA(Lu) = O=C1CN2CCN3CCN(CC(=O)*)CCN(CC2)CC(=O)[O][Lu]([O]1)[O]C(=O)C3; Ala(piperidin-4-yl) = O=C([C@H](CC1CCN([*:3])CC1)N[*:1])[*:2]; dTrp(βS-Me) = C[C@@H](c1c[nH]c2ccccc12)[C@@H](N)C(=O)O; Lys(5ξ-OH) = NCC(O)CC[C@H](N)C(=O)O; 4Pal = N[C@@H](Cc1ccncc1)C(=O)O; NMehCys = CN[C@@H](CCS)C(=O)O; NMeK = CN[C@@H](CCCCN)C(=O)O

In: Requested read-out: pKi. Entry: C[C@@H](O)[C@@H]1NC(=O)[C@H](CC2CCNCC2)NC(=O)[C@@H]([C@@H](C)c2c[nH]c3ccccc23)NC(=O)[C@H](Cc2ccc(O)cc2)NC(=O)[C@H](CCCCNC(=O)CN2CCN3CCN4CCN(CC2)CC(=O)[O][Lu]([O]C(=O)C3)[O]C(=O)C4)N(C)C(=O)[C@H](Cc2ccncc2)NC1=O [RB-0006170] (cyclo([4Pal][NMeK](DOTA(Lu))Y[dTrp(βS-Me)][Ala(piperidin-4-yl)]T))
Out: 8.00 to 8.48

In: Further, for `C[C@@H](O)[C@@H]1NC(=O)[C@H](CC2CCNCC2)NC(=O)[C@@H]([C@@H](C)c2c[nH]c3ccccc23)NC(=O)[C@H](Cc2ccc(O)cc2)NC(=O)[C@H](CCCCn2cc(CNC(=O)CN3CCN4CCN5CCN(CC3)CC(=O)[O][Lu]([O]C(=O)C4)[O]C(=O)C5)nn2)N(C)C(=O)[C@H](Cc2ccccc2)NC1=O` ?
Out: 8.00 to 8.48

In: Further, for C[C@@H](O)[C@@H]1NC(=O)[C@H](CCC(O)CN)NC(=O)[C@H](Cc2c[nH]c3ccccc23)NC(=O)[C@H](Cc2ccc(O)cc2)NC(=O)[C@H](CCSCC(=O)NCCCCCCNC(=O)CN2CCN3CCN4CCN(CC2)CC(=O)[O][Lu]([O]C(=O)C3)[O]C(=O)C4)N(C)C(=O)[C@H](Cc2ccccc2)NC1=O (stereo partly drawn) [RB-0006385] (cyclo(F[NMehCys](DOTA(Lu)NH(CH2)6NHCOCH2)YW[Lys(5ξ-OH)]T)) ?
Out: > 9.00
